Test system: UACC-62
Experiment: Cytotoxic concentration against human melanoma UACC-62 cell line growth inhibition
Type: functional
OBSERVABLE: GI50 (µM)
Respond numerically; units are µM and should not be typed.

# annotated cases, reported GI50 shown
>  <SMILES ENTRY>
COc1cc2c3c(n(C)c(=O)c2cc1OC)-c1cc2c(cc1/C3=C/CCN)OCO2

>  <MEASUREMENT UNIT>
µM

>  <OBSERVED RESULT>
0.2

$$$$
>  <SMILES ENTRY>
O=c1c2ccccc2cc2n1Cc1cc3ccccc3nc1-2

>  <MEASUREMENT UNIT>
µM

>  <OBSERVED RESULT>
97.2

$$$$
>  <SMILES ENTRY>
COc1cc2c3c(n(C)c(=O)c2cc1OC)-c1cc2c(cc1/C3=C\CCCBr)OCO2

>  <MEASUREMENT UNIT>
µM

>  <OBSERVED RESULT>
11.4

$$$$
>  <SMILES ENTRY>
COc1cc2c3c(n(C)c(=O)c2cc1OC)-c1cc2c(cc1/C3=C/CCCI)OCO2

>  <MEASUREMENT UNIT>
µM

>  <OBSERVED RESULT>
3.5

$$$$

Q: // lookup GI50 for `COc1cc2c3c(n(C)c(=O)c2cc1OC)-c1cc2c(cc1C3=O)OCO2`
Result: 4.2

----------
Listed here are compounds together with their documented GI50.
Test system: MDA-MB-435
Test: Cytotoxic concentration against human breast MDA-MB-435 cell line growth inhibition
Type: functional
Respond numerically; units are µM and should not be typed.

>  <COMPOUND>
COc1cc2c3c(n(C)c(=O)c2cc1OC)-c1cc2c(cc1/C3=C/CCCI)OCO2

>  <OBSERVED RESULT>
5.2

$$$$

Then there is this compound:
Q: // lookup GI50 for O=c1c2ccccc2cc2n1Cc1cc3ccccc3nc1-2 [ROSETTACIN]
Result: 41.8

----------
Tested on: MDA-MB-435
Experiment: Cytotoxic concentration against human breast MDA-MB-435 cell line growth inhibition
Assay type: functional
Listed here are molecules together with their documented GI50.

>  <SMILES ENTRY>
COc1cc2cc3n(c(=O)c2cc1OC)Cc1cc2ccccc2nc1-3

>  <OBSERVED RESULT>
> 100 µM

$$$$
>  <SMILES ENTRY>
COc1cc2c3c(n(C)c(=O)c2cc1OC)-c1cc2c(cc1/C3=C\CCCCBr)OCO2

>  <OBSERVED RESULT>
> 100 µM

$$$$
>  <SMILES ENTRY>
COc1cc2c3c(n(C)c(=O)c2cc1OC)-c1cc2c(cc1/C3=C\CCCCl)OCO2

>  <OBSERVED RESULT>
> 100 µM

$$$$
>  <SMILES ENTRY>
COc1cc2c3c(n(C)c(=O)c2cc1OC)-c1cc2c(cc1C3=O)OCO2

>  <OBSERVED RESULT>
96 µM

$$$$

Then there is this molecule:
Q: // lookup GI50 for `COc1cc2c3c(n(C)c(=O)c2cc1OC)-c1cc2c(cc1/C3=C/CCN)OCO2`
Result: 1.8 µM

----------
System: HCT-116
Test: Cytotoxic concentration against human colon HCT116 cell line growth inhibition
Assay type: functional
Listed here are molecules together with their documented GI50.
Respond numerically; units are µM and should not be typed.

Q: // lookup GI50 for O=c1c2ccccc2cc2n1Cc1cc3ccccc3nc1-2 [ROSETTACIN]
Result: 32.7

Q: // lookup GI50 for `COc1cc2c3c(n(C)c(=O)c2cc1OC)-c1cc2c(cc1C3=O)OCO2`
Result: 35

Q: // lookup GI50 for `COc1cc2c3c(n(C)c(=O)c2cc1OC)-c1cc2c(cc1/C3=C\CCCBr)OCO2`
Result: 37.8

Q: // lookup GI50 for COc1cc2cc3n(c(=O)c2cc1OC)Cc1cc2ccccc2nc1-3 [DIMETHOXYAROMATHECIN]
Result: 57.3

Q: // lookup GI50 for `COc1cc2c3c(n(C)c(=O)c2cc1OC)-c1cc2c(cc1/C3=C/CCN)OCO2`
Result: 0.028

Q: // lookup GI50 for `COc1cc2c3c(n(C)c(=O)c2cc1OC)-c1cc2c(cc1/C3=C/CCCI)OCO2`
Result: 0.56

----------
Listed here are compounds together with their documented GI50.
Tested on: DU-145
Experiment: Cytotoxic concentration against human prostate DU-145 cell line growth inhibition
Assay type: functional
Respond numerically; units are µM and should not be typed.

# annotated cases, reported GI50 shown
>  <SMILES ENTRY>
COc1cc2c3c(n(C)c(=O)c2cc1OC)-c1cc2c(cc1/C3=C/CCN)OCO2

>  <OBSERVED RESULT>
0.37

$$$$
>  <SMILES ENTRY>
COc1cc2c3c(n(C)c(=O)c2cc1OC)-c1cc2c(cc1/C3=C\CCCBr)OCO2

>  <OBSERVED RESULT>
67.8

$$$$
>  <SMILES ENTRY>
COc1cc2c3c(n(C)c(=O)c2cc1OC)-c1cc2c(cc1C3=O)OCO2

>  <OBSERVED RESULT>
37

$$$$

Q: // lookup GI50 for `COc1cc2c3c(n(C)c(=O)c2cc1OC)-c1cc2c(cc1/C3=C/CCCI)OCO2`
Result: 28.7

----------
System: OVCAR-3
Test: Cytotoxic concentration against human ovarian OVCAR-3 cell line growth inhibition
Assay type: functional
OBSERVABLE: GI50

>  <SMILES ENTRY>
COc1cc2c3c(n(C)c(=O)c2cc1OC)-c1cc2c(cc1/C3=C\CCCBr)OCO2

>  <GI50>
58.1 µM

$$$$

Q: GET /values?readout=GI50&system=OVCAR-3&item= `O=c1c2ccccc2cc2n1Cc1cc3ccccc3nc1-2`
Result: 39.8 µM

Q: GET /values?readout=GI50&system=OVCAR-3&item= `COc1cc2c3c(n(C)c(=O)c2cc1OC)-c1cc2c(cc1/C3=C/CCCI)OCO2`
Result: 22.8 µM

Q: GET /values?readout=GI50&system=OVCAR-3&item= `COc1cc2c3c(n(C)c(=O)c2cc1OC)-c1cc2c(cc1/C3=C\CCCCBr)OCO2`
Result: > 100 µM

Q: GET /values?readout=GI50&system=OVCAR-3&item= `COc1cc2cc3n(c(=O)c2cc1OC)Cc1cc2ccccc2nc1-3`
Result: > 100 µM

Q: GET /values?readout=GI50&system=OVCAR-3&item= `COc1cc2c3c(n(C)c(=O)c2cc1OC)-c1cc2c(cc1/C3=C/CCN)OCO2`
Result: 0.56 µM
